What Emax at 10 µM was measured for each of the following?
- test-system: soluble guanylate cyclase (sGC) (Homo sapiens (Human), UniProt Q02108+Q02153)
- Sequence (Q02153 whole entry): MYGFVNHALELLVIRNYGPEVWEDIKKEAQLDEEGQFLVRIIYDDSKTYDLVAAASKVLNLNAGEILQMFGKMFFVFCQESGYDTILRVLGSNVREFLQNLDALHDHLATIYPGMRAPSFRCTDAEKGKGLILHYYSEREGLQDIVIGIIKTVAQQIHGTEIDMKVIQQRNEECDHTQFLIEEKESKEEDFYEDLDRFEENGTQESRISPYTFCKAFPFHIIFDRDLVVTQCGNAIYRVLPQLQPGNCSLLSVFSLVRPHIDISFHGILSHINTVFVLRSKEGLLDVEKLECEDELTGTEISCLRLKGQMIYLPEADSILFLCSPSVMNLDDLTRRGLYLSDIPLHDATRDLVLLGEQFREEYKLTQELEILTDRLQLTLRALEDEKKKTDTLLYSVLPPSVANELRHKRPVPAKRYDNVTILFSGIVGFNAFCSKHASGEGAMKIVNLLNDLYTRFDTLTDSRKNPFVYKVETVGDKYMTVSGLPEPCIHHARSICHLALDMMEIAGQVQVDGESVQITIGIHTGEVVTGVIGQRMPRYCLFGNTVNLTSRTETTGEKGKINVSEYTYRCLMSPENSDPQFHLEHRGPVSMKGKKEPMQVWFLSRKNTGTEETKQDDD
- Sequence (Q02108 whole entry): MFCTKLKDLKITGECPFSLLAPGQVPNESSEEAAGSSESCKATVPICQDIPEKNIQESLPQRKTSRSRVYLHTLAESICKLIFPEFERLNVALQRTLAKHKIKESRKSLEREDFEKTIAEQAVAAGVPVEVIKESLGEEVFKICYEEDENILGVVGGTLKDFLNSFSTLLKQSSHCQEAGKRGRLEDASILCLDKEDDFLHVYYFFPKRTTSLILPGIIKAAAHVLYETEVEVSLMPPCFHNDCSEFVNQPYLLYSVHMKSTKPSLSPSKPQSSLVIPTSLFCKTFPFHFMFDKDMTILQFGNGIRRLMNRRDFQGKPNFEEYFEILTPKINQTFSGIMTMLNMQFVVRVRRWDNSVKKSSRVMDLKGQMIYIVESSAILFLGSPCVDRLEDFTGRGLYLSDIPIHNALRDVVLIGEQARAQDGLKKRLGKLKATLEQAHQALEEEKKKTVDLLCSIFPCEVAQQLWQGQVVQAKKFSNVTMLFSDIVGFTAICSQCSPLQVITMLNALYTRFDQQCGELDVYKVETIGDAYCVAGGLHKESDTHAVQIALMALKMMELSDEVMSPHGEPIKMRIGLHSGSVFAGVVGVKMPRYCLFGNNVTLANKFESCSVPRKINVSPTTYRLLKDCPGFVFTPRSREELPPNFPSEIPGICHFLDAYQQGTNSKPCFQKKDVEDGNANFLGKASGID
- assay-name: sGC-HEK-cGMP assay run with SNP incubation (HEK WC assay)
- Type: cell-based
- conditions-used: read-out: HEK WC Assay (% Emax at 10 uM/with 10 uM SNP)

[in] // returns reported Emax at 10 µM for input Cc1ccc(-c2cc(-c3ccccn3)nn2Cc2ccccc2F)cc1 [Compound I-23]
[out] 0 to 10%

[in] What does the data say about its Emax at 10 µM? Entry: Fc1ccccc1Cn1nc(-c2ncccn2)cc1-c1ccccc1 [Compound I-2]
[out] 10 to 20%

[in] Fill in the blank: the reported Emax at 10 µM of Fc1ccccc1Cn1nc(-c2ccccn2)c(Cl)c1-c1ccccn1 [Compound I-63] is ____.
[out] 0 to 10%

[in] # get_value(readout='Emax at 10 µM', item= Fc1ccccc1Cn1nc(-c2ccccn2)c(Br)c1C1CCC1 [Compound I-64] )
[out] 0 to 10%

[in] Given the molecule Cc1cc(-c2ccccn2)nn1Cc1ccccc1F [Compound I-55] , what is its reported Emax at 10 µM?
[out] 10 to 20%

[in] Look up Emax at 10 µM for this molecule: Cc1cc(-c2cc(-c3ccccn3)nn2Cc2ccccc2F)c(C)s1 [Compound I-8]
[out] 0 to 10%

[in] Name the reported Emax at 10 µM value associated with the molecule Nc1ccnc(-c2cc(-c3ccccn3)nn2Cc2ccccc2F)n1 [Compound I-41]
[out] 0 to 10%

[in] State the recorded Emax at 10 µM for this entry: COc1cccc(-c2cc(-c3ncccn3)nn2Cc2ccccc2F)n1 [Compound I-6]
[out] 20 to 40%

[in] What value of Emax at 10 µM has been reported for the following molecule? Fc1ccccc1Cn1nc(-c2ccccn2)cc1-c1ccco1 [Compound I-61]
[out] 20 to 40%

----------
Would you kindly list inhibition at 10 µM for each of these compounds?
- Tested on: Thoracic aortic rings
- assay-name: Alternative thoracic aortic rings assay (Example 19b; resting tension as 100% inhibition)
- Design: species or system rat
- conditions-used: Rattus norvegicus; 10 μM, Table 10A; read-out: Percent Relaxation at 10 μM

[in] Entry `COC(=O)Nc1c(N)nc(-c2cc(-c3ncco3)n(Cc3ccccc3F)n2)nc1N` , system Thoracic aortic rings: what inhibition at 10 µM was measured?
[out] 80 to 100%

[in] Test system Thoracic aortic rings; read-out inhibition at 10 µM; what value for `Nc1ccnc(-c2cc(-c3nccs3)n(Cc3ccccc3F)n2)n1` ?
[out] 100 to 120%

[in] Hi! What's the reported inhibition at 10 µM for `Fc1ccccc1Cn1nc(-c2ncccn2)cc1-c1cscn1` on Thoracic aortic rings?
[out] 100 to 120%

[in] Report inhibition at 10 µM for `N#Cc1cnc(-c2cc(-c3ccon3)n(Cc3ccccc3F)n2)nc1O` tested on Thoracic aortic rings.
[out] 80 to 100%

[in] Recall the recorded inhibition at 10 µM for `Nc1nc(-c2cc(-c3ccon3)n(Cc3ccccc3F)n2)ncc1F` with Thoracic aortic rings and state it.
[out] 100 to 120%

[in] Give Thoracic aortic rings inhibition at 10 µM for `COC(=O)N(C)c1c(N)nc(-c2cc(-c3ccsc3)n(Cc3ccccc3F)n2)nc1N`
[out] 60 to 80%

----------
- test-system: soluble guanylate cyclase (sGC) (Homo sapiens (Human), UniProt Q02108+Q02153)
- assay-name: sGC-HEK-cGMP assay run with SNP incubation (HEK WC assay)
- Type: cell-based
- conditions-used: read-out: HEK WC Assay (% Emax at 10 μM with 10 uM SNP)
measurement-label: Emax

[in] Name the reported Emax value associated with the compound CC(C)(C)C(=O)Nc1cnc(-c2cc(-c3ccon3)n(Cc3ccccc3F)n2)nc1 [Compound I-264]
[out] 40 to 60%

[in] What measured Emax goes with Nc1nc(-c2cc(-c3ccon3)n(Cc3ccccc3F)n2)ncc1NC(=O)[C@@H]1CCCN1C(=O)C(F)(F)F [Compound I-219] ?
[out] 60 to 80%

[in] Reported Emax for O=[N+]([O-])c1cnc(-c2cc(-c3ccon3)n(Cc3ccccc3F)n2)nc1O [Compound I-170] : what is it?
[out] 0 to 10%

[in] What value of Emax has been reported for the following compound? Cc1cnc(-c2cc(-c3ccon3)n(Cc3ccccc3F)n2)nc1N [Compound I-297]
[out] 40 to 60%

----------
- test-system: soluble guanylate cyclase (sGC) (Homo sapiens (Human), UniProt Q02108+Q02153)
- assay-name: sGC-HEK-cGMP assay run with SNP incubation (HEK WC assay)
- Assay type: cell-based
- conditions-used: read-out: HEK WC Assay (% Emax at 30 uM/with 10 uM SNP)
Hi there, I'd appreciate the recorded Emax at 30 µM for every entry that follows.

[in] Return reported Emax at 30 µM; argument: `Fc1ccccc1Cn1nc(-c2ccccn2)cc1C1CCC1`
[out] 10 to 20%

[in] GET /values?readout=Emax at 30 µM&item= `Nc1ccnc(-c2cc(-c3ccsc3)n(Cc3ccccc3F)n2)n1`
[out] 40 to 60%

[in] So what's the measured Emax at 30 µM for this one? `Fc1cccc(-c2cc(-c3ccccn3)nn2Cc2ccccc2F)c1`
[out] 0 to 10%

[in] Looking for the measured Emax at 30 µM of `Fc1ccccc1Cn1nc(-c2ccccn2)cc1-c1nccs1` , can you help?
[out] 40 to 60%

[in] Which Emax at 30 µM value is on record for `Fc1ccccc1Cn1nc(-c2ccccn2)c(Br)c1C1CCC1` ?
[out] 0 to 10%

[in] Which Emax at 30 µM reading was recorded for the molecule `COc1cccc(-c2cc(-c3ncccn3)n(Cc3ccccc3F)n2)n1` ?
[out] 0 to 10%

[in] Can you share its Emax at 30 µM? I mean this molecule: `Cc1ccc(-c2c(Br)c(-c3ncccn3)nn2Cc2ccccc2F)cc1`
[out] 0 to 10%

[in] If you can, please state the reported Emax at 30 µM value of `Fc1ccccc1Cn1nc(-c2ccccn2)cc1-c1ccsc1` .
[out] 40 to 60%

[in] Emax at 30 µM for `Fc1ccccc1Cn1nc(-c2ccccn2)cc1-c1nnco1` ?
[out] 20 to 40%

[in] What value of measured Emax at 30 µM is listed for `Fc1ccccc1Cn1nc(-c2ccccn2)cc1C1CCCCC1` ?
[out] 0 to 10%

[in] Suppose we examine the molecule `Fc1ccccc1Cn1nc(-c2ncccn2)cc1-c1cc2ccccc2o1` ; what Emax at 30 µM value has been reported?
[out] 0 to 10%

[in] # lookup: Emax at 30 µM of `Cc1cc(-c2cc(-c3ccccn3)nn2Cc2ccccc2F)c(C)s1`
[out] 0 to 10%

[in] Find the recorded Emax at 30 µM belonging to `Fc1ccccc1Cn1nc(-c2ncccn2)cc1-c1cccnc1` and report it.
[out] 0 to 10%

[in] // returns reported Emax at 30 µM for input `COc1ccc(-c2cc(-c3ncccn3)nn2Cc2ccccc2F)cc1`
[out] 0 to 10%

[in] Name the reported Emax at 30 µM value associated with the molecule `N#Cc1cc(-c2ccccn2)nn1Cc1ccccc1F`
[out] 40 to 60%

[in] Can you share its Emax at 30 µM? I mean this molecule: `Fc1ccccc1Cn1nc(-c2ncccn2)cc1-c1ccsc1`
[out] 20 to 40%

[in] Given `COc1cccc(-c2cc(-c3ncccn3)nn2Cc2ccccc2F)n1` , state its recorded Emax at 30 µM.
[out] 20 to 40%

[in] What does the record list as Emax at 30 µM for `Cc1cc(-c2ccccn2)nn1Cc1ccccc1F` ?
[out] 20 to 40%

[in] Please report the recorded Emax at 30 µM for `COc1ccc(-c2cc(-c3ccccn3)nn2Cc2ccccc2F)cc1` .
[out] 0 to 10%

[in] For `Fc1ccccc1Cn1nc(-c2ncccn2)cc1-c1ccccc1` , what is its reported Emax at 30 µM?
[out] 20 to 40%

[in] Which measured Emax at 30 µM value corresponds to `Cc1nnc(-c2cc(-c3ccccn3)nn2Cc2ccccc2F)o1` ?
[out] 0 to 10%

[in] Give its Emax at 30 µM value. Item: `Fc1ccccc1Cn1nc(-c2ccccn2)cc1-c1nnn[nH]1`
[out] 0 to 10%

[in] Which Emax at 30 µM value is on record for `Fc1ccccc1Cn1nc(-c2ccccn2)cc1-c1ccc(Br)cn1` ?
[out] 0 to 10%

[in] Looking for the measured Emax at 30 µM of `Fc1ccccc1Cn1nc(-c2ncccn2)cc1-c1ncccn1` , can you help?
[out] 0 to 10%

[in] # lookup: Emax at 30 µM of `Fc1ccccc1Cn1nc(-c2ccccn2)cc1-c1ccccc1`
[out] 10 to 20%

[in] Look up Emax at 30 µM: `CS(=O)(=O)c1ccc(-c2cc(-c3ccccn3)n(Cc3ccccc3F)n2)nc1`
[out] 0 to 10%

----------
- test-system: soluble guanylate cyclase (sGC) (Homo sapiens (Human), UniProt Q02108+Q02153)
- assay-name: sGC-HEK-cGMP assay run with SNP incubation (HEK WC assay)
- Assay type: cell-based
- conditions-used: read-out: HEK WC Assay (% Emax at 30 μM with 10 uM SNP)
measurement-label: Emax

[in] I am curious: what Emax value has been reported for Nc1nc(-c2cc(-c3ccon3)n(Cc3ccccc3F)n2)ncc1NC(=O)[C@@H]1CCCN1C(=O)C(F)(F)F [Compound I-219] ?
[out] 60 to 80%

[in] Param item = N#Cc1cc(-c2ncccn2)nn1Cc1ccccc1F [Compound I-293] ; retrieve measured Emax.
[out] 20 to 40%

[in] What value of Emax has been recorded for this entry: CC(C)(O)c1cnc(-c2cc(-c3ncco3)n(Cc3ccccc3F)n2)nc1N [Compound I-146]
[out] 40 to 60%

[in] // Emax lookup, key: CCC(C)(C)C(=O)Nc1cnc(-c2cc(-c3ccon3)n(Cc3ccccc3F)n2)nc1N [Compound I-247]
[out] 80 to 100%

[in] Query: Emax; subject: Oc1coc(-c2cc(-c3ncccn3)nn2Cc2ccccc2F)n1 [Compound I-295]
[out] 10 to 20%

[in] Returns the measured Emax for the input molecule. Input: CN(C)C(=O)Oc1cnc(-c2cc(-c3ccon3)n(Cc3ccccc3F)n2)nc1 [Compound I-274]
[out] 60 to 80%

[in] Return reported Emax; argument: Fc1ccccc1Cn1nc(-c2ncccn2)cc1C1CCC1 [Compound I-307]
[out] 0 to 10%

[in] Fill in: Emax of Nc1cc(O)nc(-c2cc(-c3ccon3)n(Cc3ccccc3F)n2)n1 [Compound I-154] is ___
[out] 10 to 20%

[in] Name the reported Emax value associated with the molecule O=c1cc(O)oc2nc(-c3cc(-c4ccon4)n(Cc4ccccc4F)n3)nc(O)c12 [Compound I-248]
[out] 0 to 10%

[in] Would you mind telling me what Emax value was observed for CC(C)(C)C(=O)Nc1cnc(-c2cc(-c3ccon3)n(Cc3ccccc3F)n2)nc1 [Compound I-264] ?
[out] 0 to 10%

[in] Which Emax reading was recorded for the molecule CC1(C(=O)Nc2cnc(-c3cc(-c4ccon4)n(Cc4ccccc4F)n3)nc2N)CC1(F)F (centres unmarked) [Compound I-245] ?
[out] 100 to 120%

[in] GET /values?readout=Emax&item= Nc1cnc(-c2cc(-c3ncco3)n(Cc3ccccc3F)n2)nc1N [Compound I-149]
[out] 80 to 100%

[in] I am curious: what Emax value has been reported for CC(C)(CO)C(=O)Nc1cnc(-c2cc(-c3ccon3)n(Cc3ccccc3F)n2)nc1N [Compound I-265] ?
[out] 80 to 100%

[in] Tell me the measured Emax of CN(C(=O)c1ccccc1)c1cnc(-c2cc(-c3ccon3)n(Cc3ccccc3F)n2)nc1N [Compound I-228] , please.
[out] 40 to 60%

[in] What value of Emax has been recorded for this entry: Nc1nc(-c2cc(-c3ccon3)n(Cc3ccccc3F)n2)ncc1NC(=O)C1(C(F)(F)F)CC1 [Compound I-237]
[out] 100 to 120%

[in] Item under review: Nc1nc(-c2cc(-c3ncco3)n(Cc3ccccc3F)n2)ncc1N=C(c1ccccc1)c1ccccc1 [Compound I-269] . Reported Emax?
[out] 10 to 20%

[in] I'd like to know its Emax. The molecule in question is CC(C)(C)NC(=O)c1cnc(-c2cc(-c3ccon3)n(Cc3ccccc3F)n2)nc1N [Compound I-136]
[out] 20 to 40%

[in] Query (molecule): Nc1nc(-c2cc(-c3ccon3)n(Cc3ccccc3F)n2)ncc1N1CCCC1=O [Compound I-169] ; field requested: Emax
[out] 60 to 80%

[in] Look at this molecule and give its reported Emax. C=CCOC1(c2cnc(-c3cc(-c4ccon4)n(Cc4ccccc4F)n3)nc2N)CC1 [Compound I-118]
[out] 40 to 60%

[in] Name the recorded Emax for Nc1nc(-c2cc(-c3ccon3)n(Cc3ccccc3F)n2)ncc1NC(=O)c1ccccn1 [Compound I-162] .
[out] 60 to 80%

[in] Form field: reported Emax of CC(C)(C)S(=O)(=O)Nc1cnc(-c2cc(-c3ccon3)n(Cc3ccccc3F)n2)nc1N [Compound I-251]
[out] 20 to 40%

[in] Fill in: Emax of Nc1nc(-c2cc(-c3ccon3)n(Cc3ccccc3F)n2)ncc1NC(=O)c1cccc(F)c1 [Compound I-171] is ___
[out] 80 to 100%

[in] Entry O=C(Nc1cnc(-c2cc(-c3ncco3)n(Cc3ccccc3F)n2)nc1O)c1ccccc1 [Compound I-159] has what Emax?
[out] 20 to 40%

[in] I'd like to know its Emax. The molecule in question is c1cnc(-c2cc(-c3ccon3)n(Cc3cnccn3)n2)nc1 [Compound I-221]
[out] 10 to 20%

[in] Requested field: Emax. Item: CC(C)(C)[S+]([O-])Nc1cnc(-c2cc(-c3ccon3)n(Cc3ccccc3F)n2)nc1N[S+]([O-])C(C)(C)C (centres unmarked) [Compound I-250]
[out] 10 to 20%

[in] So what's the measured Emax for this one? CC1(C(=O)Nc2cnc(-c3cc(-c4ccon4)n(Cc4ccccc4F)n3)nc2N)CCCO1 (centres unmarked) [Compound I-232]
[out] 60 to 80%

[in] Which Emax reading was recorded for the molecule CC(C)(C)CC(=O)Nc1cnc(-c2cc(-c3ccon3)n(Cc3ccccc3F)n2)nc1N [Compound I-124] ?
[out] 60 to 80%

[in] Bench note: what Emax did Nc1nc(-c2cc(-c3ccon3)n(Cc3ccccc3F)n2)ncc1NC(=O)c1ccon1 [Compound I-175] show?
[out] 100 to 120%

[in] Entry COc1oc(-c2cc(-c3ncccn3)nn2Cc2ccccc2F)nc1C [Compound I-291] : reported Emax = ?
[out] 0 to 10%

[in] Requested read-out: Emax. Entry: Nc1nc(-c2cc(-c3ccon3)n(Cc3ccccc3F)n2)ncc1NC(=O)[C@@H]1CCCN1 [Compound I-225]
[out] 20 to 40%

[in] Query: Emax; subject: Clc1ccccc1Cn1nc(-c2ncccn2)cc1-c1ccon1 [Compound I-200]
[out] 0 to 10%

[in] # get_value(readout='Emax', item= Nc1nc(-c2cc(-c3ccon3)n(Cc3ccccc3F)n2)ncc1NC(=O)c1cccnc1 [Compound I-179] )
[out] 80 to 100%
